Sourced from paper PMC5540273

# Tested on: CLK1;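 further: KINOMEscan kinase panel screen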
# CONDITION CONTEXT: concentration: 1 μM, replicates: in singlicate; n = 1
Item-by-item account of %Inh
The reply must contain the numeric value and, after it, the unit.

Answered cases to consult:
1. O=C(Nc1cccc(-c2nn3ncccc3c2-c2ccnc(Nc3cccc(C(F)(F)F)c3)n2)c1)c1c(F)cccc1F [GSK299495] :: 18%
2. Cc1nnc(-c2ccc(C)c(-c3ccc(C(=O)Nc4ccc(NS(C)(=O)=O)cc4)cc3)c2)o1 [GW702865] :: 2%
3. CN(C(=O)c1ccc(-c2cc(-c3c[nH]nc3-c3ccccn3)ccn2)cc1)C1CCOCC1 [GW810083] :: 23%

Field request: %Inh | item: CCn1cnc2c(N)ncnc21 [GW345098]
30%

Requested read-out: %Inh. Entry: Cn1cc(-c2ccc3c(c2)CCN3C(=O)Cc2ccccc2Cl)c2c(N)ncnc21 [GSK2608885]
25%

Could you share which %Inh value was measured for CC(C)Oc1ccc2c(-c3ccnc(Nc4ccc(N5CCN(C)CC5)cc4)n3)cnn2n1 [GW696155] ?
97%

I have this compound here, N#Cc1ccc(-c2cc(-c3c[nH]nc3-c3ccccn3)ccn2)cc1 [GW693028] , and I need its recorded %Inh.
22%

Which %Inh value belongs to Fc1ccc(-c2ncn(CCCN3CCOCC3)c2-c2cccnc2)cc1 [SB-211743] ?
24%
